Measured values drawn from paper PMC8944987 for this set.

Let's look at some compounds and their measured CC50 at 3 days.
assay: Host cell toxicity in the T. cruzi amastigote assay; type: cell-based; conditions: human, amastigote host cells; read-out: T. cruzi Dm28c CC50 (U2OS)
Readout: CC50 at 3 days (µM)

# Compound, Scale unit, Result operator, Experimental result
rows = [
    ("NC1C2CC3CC(C2)CC1C3 (centres unmarked)", "µM", ">", 100),
    ("CC(C)=CCC/C(C)=C/C(=O)O", "µM", ">", 100),
    ("CC(C)=CCCC(C)=CC=NO [Compound 15a]", "µM", ">", 100),
    ("CC(C)=CCCC1(C)CC=NO1 (centres unmarked) [Compound 15b]", "µM", ">", 100),
    ("CC(C)=CCC/C(C)=C/CNCCNC1C2CC3CC(C2)CC1(O)C3 (centres unmarked)", "µM", "=", 6.8),
    ("CC(C)=CCC/C(C)=C/CNCCN", "µM", ">", 100),
    ("ON=C1C2CC3CC(C2)CC1C3", "µM", ">", 100),
    ("O=C1C2CC3CC(C2)CC1C3", "µM", ">", 100),
    ("CC(C)=CCC/C(C)=C/CN", "µM", ">", 100),
    ("CC(C)=CCC/C(C)=C/C=O", "µM", ">", 100),
    ("C/C(=C\\CC/C(C)=C/CNCCNC1C2CC3CC(C2)CC1C3)CO (centres unmarked)", "µM", "=", 27),
    ("CC(C)=CCC/C(C)=C/CNCCNC1C2CC3CC(C2)C(O)C1C3 (centres unmarked)", "µM", "=", 14),
    ("CC(C)=CCC/C(C)=C/CNCCNC1C2CC3CC1CC(C2)C3O (centres unmarked)", "µM", "=", 17),
    ("C/C(=C\\CNCCNC1C2CC3CC(C2)CC1C3)CCC(=O)C(C)C (centres unmarked)", "µM", "=", 32),
    ("CC(C)=CCC/C(C)=C/CNCCNC1C2CC3CC(C2)CC1C3 (centres unmarked)", "µM", "=", 3.6),
    ("NCCNC1C2CC3CC(C2)CC1C3 (centres unmarked)", "µM", ">", 100),
    ("CC(C)=CCC/C(C)=C/CNCCNC1C2CC3CC1CC(O)(C3)C2 (centres unmarked)", "µM", "=", 29),
]

###

tested on: L. donovani promastigotes; test: L. donovani promastigotes assay (resazurin); format: cell-based; conditions: promastigotes; read-out: L. donovani EC50 (PRO)
pEC50: −log10 of the molar value.
Let's look at some molecules and their measured pEC50.

# Molecule, Assay target, pEC50
measured = [
    ("CC(C)=CCC/C(C)=C/CNCCNC1C2CC3CC1CC(O)(C3)C2 (centres unmarked)", "L. donovani promastigotes", 5.46),
    ("CC(C)=CCC/C(C)=C/CNCCNC1C2CC3CC(C2)CC1(O)C3 (centres unmarked)", "L. donovani promastigotes", 5.89),
]

###

assay: Host cell toxicity in the T. cruzi amastigote assay; assay type: cell-based; details: human, 3 days of compound incubation; Figure 2D; read-out: half-maximal cytotoxic concentration (CC50) against the host U2OS

# Compound, CC50 at 3 days
rows = [
    ("CC(C)=CCC/C(C)=C/CNCCNC1C2CC3CC(C2)CC1C3 (stereo not shown) [SQ109]", "2950 nM"),
]
